Data provenance: ChEMBL document CHEMBL4513216

So I've got a bunch of molecules here, and I need their cytotoxicity at 10 µM values.
- ASSAY_PROCEDURE: Toxicity liver stage against HepG2, at 10uM
- Format: cell-based
- Design: test concentration 10 uM, cell line HepG2-A16-CD81EGFP
- CONDITION_DESCRIPTION: human, HepG2-A16-CD81EGFP cells; read-out: INHIBITION
Numbers only, in %.

> print(dat)
                                   molecule  recorded.measurement
1  Cc1nc(C2CCCN2C(=O)COCc2ccccc2)no1 (centres undefined)                 -2.66
2   COc1cc2c(cc1OC)CN(C(=O)Cn1nc(C)cc1C)CC2                  1.29
3  O=C(c1cn(-c2ccccc2)nn1)N1CCOCC(O)C1 (centres undefined)                  2.35
4  CC(C)C(=O)N1CCCC(c2cncc(Oc3cccnc3)n2)C1 (centres undefined)                 -2.83
5           CCOC1CCN(C(=O)CN(C)c2cnccn2)CC1                 -6.07

Each molecule below has a reported value. Please supply its cytotoxicity at 10 µM.
1. CCCN1CCCn2nc(CNC(=O)C3CCOC3)cc2C1 (centres undefined)
2. c1ccc2sc(CN3CCOC(Cn4cccn4)C3)nc2c1 (centres undefined)

[0.237, -10.2]

Each molecule below has a reported value. Please supply its cytotoxicity at 10 µM.
1. NC(=O)N1CCCN(CCc2nc(-c3cccc(Cl)c3)no2)CC1
2. Cc1cc(C)c(C(=O)N2CCOC(c3cccs3)C2)c(=O)[nH]1 (centres undefined)
3. O=C(COc1cccc(Br)c1)N1CCN(c2nccs2)CC1
4. O=C(c1nn[nH]c1Nc1ccc(Cl)cc1)N1CCCCCC1
5. CCc1nc(C2CCCN(C(=O)c3ccc(OC(C)C)nc3)C2)no1 (centres undefined)
6. CNc1nc2c(c(C(=O)N3CCCC3)n1)CN(Cc1ccco1)CC2

1: 14.8; 2: -1.29; 3: -1.53; 4: 34.5; 5: 3.25; 6: -113
